System: DARPin 2G7 (synthetic construct)
Test: competition SPR
Settings: SPR: TBS (50 mM Tris-HCl, 150 mM NaCl, pH 6.8) or TBS-KCl (150 mM KCl instead of NaCl), 1-32 nM DARPin on 300-500 RU biotinylated DNA; ELISA: 100 nM …
Reported Endpoint: Kd (nM)

> print(dat)
                           residue.sequence  unit.spec  numeric.readout
1  TTAGGGTTAGGGTTAGGGTTAGGG [tel (non-biotinylated)]         nM                8

---

Test system: DARPin 2D10 (synthetic construct)
Assay: SPR
Conditions: SPR: TBS (50 mM Tris-HCl, 150 mM NaCl, pH 6.8) or TBS-KCl (150 mM KCl instead of NaCl), 1-32 nM DARPin on 300-500 RU biotinylated DNA; ELISA: 100 nM …
Reported Endpoint: Kd (nM)

> print(dat)
                           residue.sequence  reported.endpoint  numeric.readout
1  TTAGGGTTAGGGTTAGGGTTAGGG [tel (biotinylated)]                 Kd               34

---

System: DARPin 2G7 (synthetic construct)
Test: competition SPR
Conditions: SPR: TBS (50 mM Tris-HCl, 150 mM NaCl, pH 6.8) or TBS-KCl (150 mM KCl instead of NaCl), 1-32 nM DARPin on 300-500 RU biotinylated DNA; ELISA: 100 nM …
pKd: −log10 of the molar value.
Reported Endpoint: pKd

> print(dat)
                           residue.sequence                   subject.of.test  numeric.readout
1  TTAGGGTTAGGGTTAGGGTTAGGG [tel (non-biotinylated)]  DARPin 2G7 (synthetic construct)             7.49

---

Test system: DARPin 1C7 (synthetic construct)
Assay: competition SPR
Conditions: SPR: TBS (50 mM Tris-HCl, 150 mM NaCl, pH 6.8) or TBS-KCl (150 mM KCl instead of NaCl), 1-32 nM DARPin on 300-500 RU biotinylated DNA; ELISA: 100 nM …
Reported Endpoint: Kd (nM)

> print(dat)
                           residue.sequence  numeric.readout
1  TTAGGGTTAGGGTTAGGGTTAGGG [tel (non-biotinylated)]              110

---

System: DARPin 2E4 (synthetic construct)
Assay: competition SPR
Conditions: SPR: TBS (50 mM Tris-HCl, 150 mM NaCl, pH 6.8) or TBS-KCl (150 mM KCl instead of NaCl), 1-32 nM DARPin on 300-500 RU biotinylated DNA; ELISA: 100 nM …
Reported Endpoint: Kd (µM)

> print(dat)
                           residue.sequence  reported.endpoint  numeric.readout
1  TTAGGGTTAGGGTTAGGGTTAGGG [tel (non-biotinylated)]                 Kd             0.12

---

Tested on: DARPin 1C11 (synthetic construct)
Assay: competition SPR
Details: SPR: TBS (50 mM Tris-HCl, 150 mM NaCl, pH 6.8) or TBS-KCl (150 mM KCl instead of NaCl), 1-32 nM DARPin on 300-500 RU biotinylated DNA; ELISA: 100 nM …
Reported Endpoint: Kd (nM)

> print(dat)
                           residue.sequence  unit.spec  numeric.readout
1  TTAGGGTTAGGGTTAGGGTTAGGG [tel (non-biotinylated)]         nM              100

---

System: DARPin 2C10 (synthetic construct)
Assay: competition SPR
Conditions: SPR: TBS (50 mM Tris-HCl, 150 mM NaCl, pH 6.8) or TBS-KCl (150 mM KCl instead of NaCl), 1-32 nM DARPin on 300-500 RU biotinylated DNA; ELISA: 100 nM …
pKd: −log10 of the molar value.
Reported Endpoint: pKd

> print(dat)
                           residue.sequence                    subject.of.test  numeric.readout
1  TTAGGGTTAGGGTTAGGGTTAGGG [tel (non-biotinylated)]  DARPin 2C10 (synthetic construct)             6.80

---

System: DARPin 1C11 (synthetic construct)
Assay: competition SPR
Details: SPR: TBS (50 mM Tris-HCl, 150 mM NaCl, pH 6.8) or TBS-KCl (150 mM KCl instead of NaCl), 1-32 nM DARPin on 300-500 RU biotinylated DNA; ELISA: 100 nM …
Reported Endpoint: Kd (nM)

> print(dat)
                           residue.sequence  numeric.readout
1  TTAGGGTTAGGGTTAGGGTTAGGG [tel (non-biotinylated)]               72

---

Tested on: DARPin 2E4 (synthetic construct)
Test: SPR
Details: SPR: TBS (50 mM Tris-HCl, 150 mM NaCl, pH 6.8) or TBS-KCl (150 mM KCl instead of NaCl), 1-32 nM DARPin on 300-500 RU biotinylated DNA; ELISA: 100 nM …
pKd: −log10 of the molar value.
Reported Endpoint: pKd

> print(dat)
                 residue.sequence  numeric.readout
1  TGAGGGTGGGTAGGGTGGGTAA [c-MYC]             7.19

---

System: DARPin 1G2 (synthetic construct)
Assay: SPR
Settings: SPR: TBS (50 mM Tris-HCl, 150 mM NaCl, pH 6.8) or TBS-KCl (150 mM KCl instead of NaCl), 1-32 nM DARPin on 300-500 RU biotinylated DNA; ELISA: 100 nM …
pKd: −log10 of the molar value.
Reported Endpoint: pKd

> print(dat)
                           residue.sequence                   subject.of.test  reported.endpoint  numeric.readout
1  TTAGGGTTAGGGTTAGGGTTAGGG [tel (biotinylated)]  DARPin 1G2 (synthetic construct)                pKd             7.28
2      CAGGGGTGTGGGGACAGGGGTGTGGGGAC [ILPR]  DARPin 1G2 (synthetic construct)                pKd             7.57
3            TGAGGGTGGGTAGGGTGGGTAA [c-MYC]  DARPin 1G2 (synthetic construct)                pKd             7.37

---

Test system: DARPin 2C10 (synthetic construct)
Assay: competition SPR
Settings: SPR: TBS (50 mM Tris-HCl, 150 mM NaCl, pH 6.8) or TBS-KCl (150 mM KCl instead of NaCl), 1-32 nM DARPin on 300-500 RU biotinylated DNA; ELISA: 100 nM …
pKd: −log10 of the molar value.
Reported Endpoint: pKd

> print(dat)
                           residue.sequence  numeric.readout
1  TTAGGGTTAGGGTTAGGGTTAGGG [tel (non-biotinylated)]             7.17

---

Tested on: DARPin 1C11 (synthetic construct)
Test: SPR
Details: SPR: TBS (50 mM Tris-HCl, 150 mM NaCl, pH 6.8) or TBS-KCl (150 mM KCl instead of NaCl), 1-32 nM DARPin on 300-500 RU biotinylated DNA; ELISA: 100 nM …
Reported Endpoint: Kd (nM)

> print(dat)
                           residue.sequence  numeric.readout
1            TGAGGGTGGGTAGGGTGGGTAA [c-MYC]               49
2      CAGGGGTGTGGGGACAGGGGTGTGGGGAC [ILPR]               43
3  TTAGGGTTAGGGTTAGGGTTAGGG [tel (biotinylated)]               53

---

Test system: DARPin 2G10 (synthetic construct)
Test: SPR
Settings: SPR: TBS (50 mM Tris-HCl, 150 mM NaCl, pH 6.8) or TBS-KCl (150 mM KCl instead of NaCl), 1-32 nM DARPin on 300-500 RU biotinylated DNA; ELISA: 100 nM …
Reported Endpoint: Kd

> print(dat)
                 residue.sequence                    subject.of.test  reported.endpoint  result
1  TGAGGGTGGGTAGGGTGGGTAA [c-MYC]  DARPin 2G10 (synthetic construct)                 Kd   90 nM
